Record form. Attribute: fraction ligated. Fill in for each entry.
B1: F1*; the commonest letter at each place (parent)
chain: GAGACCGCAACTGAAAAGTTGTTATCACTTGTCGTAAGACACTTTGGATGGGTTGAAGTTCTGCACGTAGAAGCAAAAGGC

Variants of: B1
Assay: fraction ligated after 30 min (ligated reads / total reads); higher = more ligase activity
Details: with F1*sub RNA substrate (template-directed ligation), 42 °C
Give only the figure.

Query: Could you please provide reported fraction ligated for A41G A57G ? Thanks!
Response: 0.787

Query: Could you please provide reported fraction ligated for G50C A56T ? Thanks!
Response: 0.0147

Query: Could you please provide reported fraction ligated for C28A C33A ? Thanks!
Response: 0.818

Query: Could you please provide reported fraction ligated for A41G T45C ? Thanks!
Response: 0.541

Query: Could you please provide reported fraction ligated for G38A G46T ? Thanks!
Response: 0.791

Query: Could you please provide reported fraction ligated for T49G A57G ? Thanks!
Response: 0.734

Query: Could you please provide reported fraction ligated for C42A A57C ? Thanks!
Response: 0.797

Query: Could you please provide reported fraction ligated for C28T G46A ? Thanks!
Response: 0.802

Query: Could you please provide reported fraction ligated for T23G G47T ? Thanks!
Response: 0.346

Query: Could you please provide reported fraction ligated for T25A T49A ? Thanks!
Response: 0.721

Query: Could you please provide reported fraction ligated for C33T G34T ? Thanks!
Response: 0.853

Query: Could you please provide reported fraction ligated for T23C A56T ? Thanks!
Response: 0.802

Query: Could you please provide reported fraction ligated for A24G T49A ? Thanks!
Response: 0.742

Query: Could you please provide reported fraction ligated for A37G G50A ? Thanks!
Response: 0.659

Query: Could you please provide reported fraction ligated for T23G T49C ? Thanks!
Response: 0.748

Query: Could you please provide reported fraction ligated for A48G A56T ? Thanks!
Response: 0.357

Query: Could you please provide reported fraction ligated for C40T T49A ? Thanks!
Response: 0.792

Query: Could you please provide reported fraction ligated for T29G A36G ? Thanks!
Response: 0.823

Query: Could you please provide reported fraction ligated for T49G G50C ? Thanks!
Response: 0.0713

Query: Could you please provide reported fraction ligated for T30C A56C ? Thanks!
Response: 0.763

Query: Could you please provide reported fraction ligated for G31A T44C ? Thanks!
Response: 0.801

Query: Could you please provide reported fraction ligated for T25G T32A ? Thanks!
Response: 0.324
